experiment: MRT (0 to t) in Sprague-Dawley rat at 4 mg/kg, iv measured upto 72 hrs by (LC-MS)/MS analysis; assay type: ADME, organism-based; conditions: in vivo
OBSERVATION_TYPE: MRT last at 72 h (h)
Give the value, in units of h, as a plain number.

// query Sample `COc1cc2ncnc(Nc3cccc(Cl)c3F)c2cc1OCCCCNCc1c(OC)cc(OCc2cccc(-c3ccccc3)c2C)cc1OC` — what was its MRT last at 72 h?
// result 12.7

----------
assay: Tmax in Sprague-Dawley rat at 4 mg/kg, iv measured upto 72 hrs by (LC-MS)/MS analysis; assay type: ADME, organism-based; settings: in vivo
OBSERVATION_TYPE: Tmax (min)
Give the value, in units of min, as a plain number.

// query Sample `COc1cc2ncnc(Nc3cccc(Cl)c3F)c2cc1OCCCCNCc1c(OC)cc(OCc2cccc(-c3ccccc3)c2C)cc1OC` — what was its Tmax?
// result 2.4

----------
experiment: Volume of distribution in Sprague-Dawley rat at 4 mg/kg, iv measured upto 72 hrs by (LC-MS)/MS analysis; assay type: ADME, organism-based; details: in vivo
OBSERVATION_TYPE: Vd (L/kg)
Give the value, in units of L/kg, as a plain number.

// query Sample `COc1cc2ncnc(Nc3cccc(Cl)c3F)c2cc1OCCCCNCc1c(OC)cc(OCc2cccc(-c3ccccc3)c2C)cc1OC` — what was its Vd?
// result 13.7

----------
assay: cells; settings: Homo sapiens, U87MG Human EGFR vIII, 72 h
Description: Antiproliferative activity against human U87vIII cells expressing EGFRvIII incubated for 72 hrs by MTT assay
OBSERVATION_TYPE: log10(IC50) (log10 of the value in µM)
Values reflect log10 of reported IC50 (µM).

// query Sample `COc1cc2ncnc(Nc3ccc(F)c(Cl)c3)c2cc1OCCCNCc1ccc(-c2cccc(-c3ccccc3)c2C)nc1OC` — what was its log10(IC50)?
// result -0.09

Next:
// query Sample `COc1nc(OCc2cccc(-c3ccccc3)c2C)ccc1CNCCNC(C)=O` — what was its log10(IC50)?
// result 0.90

// query Sample `COc1cc2ncnc(Nc3ccc(F)c(Cl)c3)c2cc1OCCCCCCCCNCc1ccc(-c2cccc(-c3ccccc3)c2C)nc1OC` — what was its log10(IC50)?
// result 0.30

// query Sample `COc1cc2ncnc(Nc3ccc(F)c(Cl)c3)c2cc1OCCNCc1c(OC)cc(OCc2cccc(-c3ccccc3)c2C)cc1OC` — what was its log10(IC50)?
// result 0.45

// query Sample `COc1cc2ncnc(Nc3ccc(F)c(Cl)c3)c2cc1OCCCCNCc1ccc(OCc2cccc(-c3ccccc3)c2C)c(C)c1` — what was its log10(IC50)?
// result -0.14

----------
assay: cells; conditions: Homo sapiens, U87MG Human EGFR vIII, 72 h
OBSERVATION_TYPE: pIC50
Please treat pIC50 as minus the base-10 logarithm of the molar concentration.

// query Sample `COc1cc2ncnc(Nc3ccc(F)c(Cl)c3)c2cc1OCCCCCNCc1ccc(-c2cccc(-c3ccccc3)c2C)nc1OC` — what was its pIC50?
// result 6.28

// query Sample `COc1cc2ncnc(Nc3ccc(F)c(Cl)c3)c2cc1OCCCCCNCc1c(OC)cc(OCc2cccc(-c3ccccc3)c2C)cc1OC` — what was its pIC50?
// result 6.36

// query Sample `COc1cc(OCc2cccc(-c3ccccc3)c2C)ccc1CNCCCCOc1cc2c(Nc3cccc(Cl)c3F)ncnc2cc1OC` — what was its pIC50?
// result 6.54

// query Sample `COc1cc(OCc2cccc(-c3ccccc3)c2C)ccc1CNCCCCOc1cc2c(Nc3ccc(F)c(Cl)c3)ncnc2cc1OC` — what was its pIC50?
// result 6.10

// query Sample `COc1cc2ncnc(Nc3cccc(Cl)c3F)c2cc1OCCCCNCc1c(OC)cc(OCc2cccc(-c3ccccc3)c2C)cc1OC` — what was its pIC50?
// result 6.55

Next:
// query Sample `COc1cc2ncnc(Nc3ccc(F)c(Cl)c3)c2cc1OCCCCCCNCc1ccc(-c2cccc(-c3ccccc3)c2C)nc1OC` — what was its pIC50?
// result 6.14

// query Sample `COc1cc2ncnc(Nc3ccc(F)c(Cl)c3)c2cc1OCCCCCNC(=O)CN(C)Cc1c(OC)cc(OCc2cccc(-c3ccccc3)c2C)cc1OC` — what was its pIC50?
// result 5.51

----------
test: MRT (0 to infinity) in Sprague-Dawley rat at 4 mg/kg, iv measured upto 72 hrs by (LC-MS)/MS analysis; assay type: ADME, organism-based; details: in vivo
OBSERVATION_TYPE: MRT inf (h)
Give the value, in units of h, as a plain number.

// query Sample `COc1cc2ncnc(Nc3cccc(Cl)c3F)c2cc1OCCCCNCc1c(OC)cc(OCc2cccc(-c3ccccc3)c2C)cc1OC` — what was its MRT inf?
// result 12.5

----------
assay: Tmax in Sprague-Dawley rat at 20 mg/kg, po measured upto 72 hrs by (LC-MS)/MS analysis; format: ADME, organism-based; conditions: in vivo
OBSERVATION_TYPE: Tmax (h)
Give the value, in units of h, as a plain number.

// query Sample `COc1cc2ncnc(Nc3cccc(Cl)c3F)c2cc1OCCCCNCc1c(OC)cc(OCc2cccc(-c3ccccc3)c2C)cc1OC` — what was its Tmax?
// result 3.6
